tested on: VEGF promoter (rat VEGF gene promoter-luciferase reporter in Hep3B cells); test: Luciferase assay in Hep3B-VEGF Luciferase cells, hypoxia induced by deferoxamine; type: cell-based, human; conditions: deferoxamine about 100 μM, 18-20 hours, 50% inhibition of the luciferase signal
Values of IC50 strictly less than 7 µM map to MET, and values of at least 7 µM map to NOT MET.

compound | classAssignment
NS(=O)(=O)c1ccc(-c2ccc(/C=C3/SC(=S)N(Cc4ccccc4)C3=O)o2)cc1 [Compound 7] | MET
COC(=O)c1ccc(-c2ccc(/C=C3/SC(=S)N(CCc4ccccc4)C3=O)o2)cc1 [Compound 20] | NOT MET
N#Cc1ccc(-c2ccc(/C=C3/SC(=S)N(CCc4ccccc4)C3=O)o2)cc1 [Compound 19] | NOT MET
COC(=O)c1ccccc1-c1ccc(/C=C2/SC(=S)N(Cc3ccccc3)C2=O)o1 [Compound 1] | MET
COc1ccc(CCN2C(=O)/C(=C\c3ccc(-c4ccc(C#N)cc4)o3)SC2=S)cc1OC [Compound 18] | MET
COC(=O)c1ccc(-c2ccc(/C=C3/SC(=S)N(CCc4ccc(OC)c(OC)c4)C3=O)o2)cc1 [Compound 21] | MET
COC(=O)c1ccc(-c2ccc(/C=C3/SC(=S)N(Cc4cccs4)C3=O)o2)cc1 [Compound 13] | NOT MET
COC(=O)c1ccc(-c2ccc(/C=C3/SC(=S)N(CCCN4CCOCC4)C3=O)o2)cc1 [Compound 16] | MET
